Taken from ChEMBL document CHEMBL1201862.

GI50 reference
# Test system: 786-0
# measurementProtocol: NCI tumour cell line growth inhibition, 48 h
Activity calls are given as the source filed them. No stated cut-off is given here; in the data, active = GI50 up to about 1.1 µM and inactive = higher.

{"columns": ["compound", "GI50"],
 "data": [
  ["COC(=O)CCC(NC(=O)C(C)NC(=O)COC1C(O)C(OC(=O)CCNc2c3ccccc3nc3cccc([N+](=O)[O-])c23)OC(OCc2ccccc2)C1NC(C)=O)C(N)=O (stereo not given)", "3.56 µM (inactive)"],
  ["COc1ccc(/C=N/n2c(Cc3ccccc3)n[nH]c2=O)c(OC)c1", "31 µM (inactive)"],
  ["CC(=O)Nc1sccc1S(=O)(=O)c1ccc(Cl)cc1", "> 100 µM (inactive)"],
  ["CC1CC[C@]2(C(=O)O)CCC3(C)C(=CC(=O)C4[C@@]5(C)CCC(=O)C(C)(C)C5CC[C@]43C)[C@@H]2[C@H]1C (stereo not given in full)", "31.8 µM (inactive)"],
  ["C=CC[C@@H]1C(=O)[C@@]2(O[Si](C(C)C)(C(C)C)C(C)C)CC[C@@H]1C[C@H]2NC(=O)OCC(Cl)(Cl)Cl", "77.1 µM (inactive)"]
]}
